# System: HCT-15 colon
# experiment: NCI tumour cell line growth inhibition, 48 h
measured-endpoint: TGI

Qu. Look up TGI for this molecule: CC1(C)OCC(C2OC(C)(C)OC2[C@H]2O[C@@]3(O)[C@H]4[C@H](C=CC[C@@H]42)[C@@H](OCc2ccccc2)[C@H](OCc2ccccc2)[C@H]3OCc2ccccc2)O1 (stereo not given in full)
Ans. > 100 µM

Qu. For CCOC(=O)[C@@H](Cc1ccc(CCl)cc1)NC(C)=O then?
Ans. 94.1 µM

* * *

# System: SNB-75 CNS
# experiment: NCI tumour cell line growth inhibition, 48 h
measured-endpoint: TGI

Illustrative cases are given below, each with its answer.
O=C1NC(c2ccccc2)C2(C(=O)O)CN(C3CC3)c3cc(N4CCNCC4)c(F)cc3C2N1 (stereo not drawn); > 100 µM
O=c1c2ccc(Cl)cc2oc2c(CNc3ccc(S(=O)(=O)Nc4ncccn4)cc3)cccc12; > 100 µM
CC(=O)[O-].N.N.N.N.[Co+3].[O-][Cl+3]([O-])([O-])[O-].[OH3+]; > 100 µM
CC[C@H](C)[C@H](NC(=O)c1cccn1C)C(=O)N(C)[C@H](C[C@@H](OC(C)=O)c1nc(C(=O)N[C@@H](Cc2ccccc2)C[C@H](C)C(=O)OC)cs1)C(C)C; > 33.3 µM
C[C@]12C[C@H](O)[C@H]3[C@@H](CCC4=CC(=O)CC[C@@]43C)[C@@H]1CC[C@@H]2c1csc(-c2ccccc2)n1; > 82.7 µM
CCC1(CC)C(=O)N(C(=O)c2cc(OC)c(OC)c(OC)c2)N(C(=O)c2cc(OC)c(OC)c(OC)c2)C1=O; > 50 µM

Qu. TGI lookup needed for CNC(=O)c1cncc(/C=C/c2ccccc2Cl)c1 , thanks.
Ans. > 25 µM

Qu. Same read-out for CCOC(=O)c1c(SCc2cc(=O)[nH]c(=O)[nH]2)n(-c2ccccc2)c(=S)n(-c2ccccc2)c1=O ?
Ans. > 100 µM

Qu. Also check CN(C)CCNCCCNc1c2ccccc2nc2cccc([N+](=O)[O-])c12
Ans. 0.0573 µM

Qu. // next record COc1ccc(OC(C)C(=O)O)c2c(=O)ccccc12 (stereo not drawn)
Ans. > 100 µM

Qu. How about C[C@@H]1CC[C@@]2(NC1)O[C@H]1C[C@H]3[C@@H]4CC[C@H]5C[C@@H](O)CC[C@]5(C)[C@H]4CC[C@]3(C)[C@H]1[C@@H]2C ?
Ans. > 100 µM

Qu. Proceed to CCC[CH2][Sn]1([CH2]CCC)[S]CC[N]1S(=O)(=O)c1ccc(C)cc1
Ans. 2.38 µM

Qu. Okay, and Cc1ncc(CI)c(CI)c1O ?
Ans. 41.2 µM

* * *

# Test system: SK-MEL-28 melanoma
# experiment: NCI tumour cell line growth inhibition, 48 h
measured-endpoint: TGI

CCOC(=O)/C=C/CCC(C)(C)COC(C)=O; > 10 µM
c1cncc(CSc2nc3ccccc3nc2-c2cccs2)c1; > 100 µM
CC/C(=C/c1ccc(OC)cc1OC)[N+](=O)[O-]; 6.51 µM
COc1ccc2nc3cc(Cl)ccc3c(Nc3cc(CN4CCCC4)c(O)c(CN4CCCC4)c3)c2n1; 4.5 µM
O=C1NC(c2ccccc2)C2(C(=O)O)CN(C3CC3)c3cc(N4CCNCC4)c(F)cc3C2N1 (stereo not drawn); > 100 µM

Qu. Entry C1=CCCC=CCC1.C[PH+](C)C.C[PH+](C)C.C[PH+](C)C.[Cl-].[Ir] : reported TGI = ?
Ans. > 100 µM

Qu. Query COc1cc(N=Nc2ccc(OC)c(S(=O)(=O)O)c2)c(C)cc1N=Nc1ccc(/C=C/c2ccc(N=[N+]([O-])c3ccc(/C=C/c4ccc(N=Nc5cc(C)c(N=Nc6ccc(OC)c(S(=O)(=O)O)c6)cc5OC)cc4S(=O)(=O)O)c(S(=O)(=O)O)c3)cc2S(=O)(=O)O)c(S(=O)(=O)O)c1 next
Ans. > 100 µM

Qu. Here is the next compound: C=CN(C=C)C(=O)Cn1cc(-c2ccccc2)nn1
Ans. > 100 µM
